Assay: Cytotoxicity against human MOLT4 cells assessed as cell growth inhibition after 24 hrs by MTT assay
Assay type: cell-based
Settings: MOLT-4 cells
measurementName: CC50 at 24 h
Please give the number followed by its unit.

Determine its reported CC50 at 24 h: COc1ccc2cc1Oc1ccc(cc1)C[C@H]1c3c(cc4c(c3Oc3cc5c(cc3OC)CCN(C)[C@@H]5C2)OCO4)CCN1C [CEPHARANTHINE]
10 µg/mL
